Reported conditions: pH 10.6
Reported metric: logD
API note: the answer field is a bare number with no unit suffix.

Answer with reported logD of C=CCN1CCc2nc(N)sc2CC1
1.48

====

Reported metric: logP
In your answer, state the number alone without any accompanying words.

Answered examples (6):
{"Compound": "CCCSP(=S)(OCC)Oc1ccc(Cl)cc1Cl (configuration not stated)", "logP": 4.92}
{"Compound": "CC12CC(O)C3C(CCC4(O)CC(O)CC(O)C34CO)C1(O)CCC2C1=CC(=O)OC1 (configuration not stated)", "logP": -0.02}
{"Compound": "O=C1CC(Sc2nc3ccccc3s2)N1 (configuration not stated)", "logP": 2.3}
{"Compound": "COC(=O)c1ccccc1N", "logP": 1.88}
{"Compound": "COC(=O)C(F)(F)F", "logP": 0.6}
{"Compound": "CC(C)(C)C(O)(CCc1ccc(Cl)cc1)Cn1cncn1 (configuration not stated)", "logP": 3.7}

Return reported logP. Input compound: CN(C)O
-1.15

====

Reported metric: logP
Reply briefly: the number, and no unit.

Example entries begin here.
{"Compound": "O=C(O)Cc1csc(-c2ccc(Cl)cc2)n1", "logP": 3.29}
{"Compound": "Nc1ccccc1S(N)(=O)=O", "logP": 0.22}

For the compound CN(C)c1ccc(C(=O)c2ccc(N(C)C)cc2)cc1 , give its reported logP.
3.87

Please list logP recorded for the compound COC(=O)CC(=O)OC
-0.05

Using the record for CNC(=O)c1ccccc1C(=O)c1ccccc1 , state its measured logP.
2.09

Given Nc1cc([N+](=O)[O-])cc([N+](=O)[O-])c1 , respond with its logP.
1.89

Look up and report measured logP for this entry: c1ccc(COCc2ccccc2)cc1
3.31

Supply reported logP belonging to this compound: CCCOP(OCCC)OCCC
2.26

Return value of logP for input CC(O)Cc1ccccc1 (stereo not given) , no commentary.
1.97

Give logP for the following compound: CC(C)(C)C(=O)C(C)(C)C
3

// fetch logP given entry CN(C)C(=O)C12CC3CC(CC(C3)C1)C2
2.55

Answer with the recorded logP for the compound listed here: CCCCCCCCCCCCCCc1cccc(N2C(N)=NC(N)=NC2(C)C)c1
3.64

Identify measured logP corresponding to CN(C)c1ccc2c(c1)C(=O)N(O)C2=O
1.27

Read off the recorded logP for ClC(Cl)C(Cl)(Cl)Cl
3.22

Annotate the compound c1ncc2c(n1)-c1cn[nH]c1-2 with its measured logP.
0.14

====

Experiment summary: method code SF-AS, from Hansch, C., Leo, A., & Hoekman, D. (1995). Exploring QSAR: hydrophobic, electronic, and steric constants (Vol. 2). Washington, DC: American Chemical Society.
Reported conditions: pH 7.2
Reported metric: logD
No unit in the answer, please; the number alone is enough.

Worked examples, 3 molecules total:
{"Compound smiles": "N#CC(C#N)=NNc1ccccc1Br", "Obs value": 3.11}
{"Compound smiles": "N#CC(C#N)=NNc1cccc(Cl)c1Cl", "Obs value": 3.85}
{"Compound smiles": "Cc1ccccc1NN=C(C#N)C#N", "Obs value": 2.38}

Give reported logD value for N#CC(C#N)=NNc1ccccc1C(F)(F)F
4.2

Return logD for the following molecule: Cc1ccc(NN=C(C#N)C#N)c([N+](=O)[O-])c1
2.5

Data provenance: the SangsterLogP compilation
